Field: 2-EAQ solubility. Provide a value for each of the compounds that follow.
Type: physicochemical

Sample records with 2-EAQ solubility:
Please fill in: 2-EAQ solubility reported for CCc1ccc(OC)cc1 [Solvent A, 1-ethyl-4-methoxybenzene] = 229 g/kg of solvent

Please fill in: 2-EAQ solubility reported for CCCOc1ccccc1 [Solvent C, phenylpropylether] = 229 g/kg of solvent

Data point: COc1c(C)cccc1C [Solvent B, 2,6-dimethylanisole] ; 2-EAQ solubility = 226 g/kg of solvent

We next turn to a different compound, shown below.
Measured 2-EAQ solubility of Cc1cc(C)cc(C)c1 [Solvent D, 1,3,5-trimethylbenzene, reference compound] : 210 g/kg of solvent
